Provenance of the data: PubChem BioAssay (EPA / NIEHS)

- PROTOCOL_DESCRIPTION: BSK_hDFCGF_SRB: Viability Assessment in the BioMAP Diversity Plus: hDFCGF Assay (AID 2283061);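 further: cells exposed to compound for 24 h before the read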
- CONDITION_NOTES: primary human foreskin fibroblasts
Activity calls are given as the source filed them. How the source made its calls: active means hit-call score of the fitted dose curve at least 0.9, where 1 is the maximum; inactive means score below 0.9.
Classes used: active, inactive

| MOLECULE | CLASS_NAME |
| --- | --- |
| O=C1CCC(C2CCCCC2)CC1 | active |
| CN1C(=O)N(c2ccccc2Br)Cc2cnc(Nc3ccc4c(c3)OCC(CO)O4)nc21 (stereo not given) | active |
| OC12N=C(c3ccccc3)SC1Cc1cc(Cl)ccc12 (stereo not given) | inactive |
| COc1ccc2cc(S(=O)(=O)N[C@H](CC(=O)N[C@H](Cc3ccc(CN4[C@H](C)CCC[C@@H]4C)cc3)C(=O)N(C)C(C)C)c3ccc4c(c3)OCO4)ccc2c1 | active |
| CCCC(=O)OCCC(C)C | inactive |

###

- Read-out: TIMP metallopeptidase inhibitor 1 (TIMP1), TIMP1 (gene 7076)
- PROTOCOL_DESCRIPTION: BSK_hDFCGF_TIMP1: BioMAP Diversity Plus: hDFCGF Assay for TIMP metallopeptidase inhibitor 1 (TIMP1) Biomarker Activity (AID 2283062)
- CONDITION_NOTES: primary human foreskin fibroblasts; actives raise or lower the signal
The source made the active and inactive calls. Rule for the calls: active = hit-call score of the fitted dose curve at least 0.9, where 1 is the maximum; inactive = score below 0.9.
Outcome codes: y for active, n for inactive

| SMILES_CODE | CLASS_NAME |
| --- | --- |
| Cc1cc(F)ccc1-c1cc(N2CC[C@@H](O)[C@H]2CO)ncc1N(C)C(=O)C(C)(C)c1cc(C(F)(F)F)cc(C(F)(F)F)c1 | y |
| COc1cc(C(=O)NC2CCN(C)CC2)ccc1Nc1ncc2c(n1)N(C1CCCC1)CC(F)(F)C(=O)N2C | n |
| CN(C)C(=O)C1(N2CCCCC2)CCN(CC[C@@]2(c3ccc(Cl)c(Cl)c3)CN(C(=O)c3ccccc3)CCO2)CC1 | y |
| CCCCCc1ccc(N)cc1 | n |
| O=C1CCC(C2CCCCC2)CC1 | y |
| Oc1ccc2ccccc2c1 | n |

###

- Read-out: Tissue Factor, F3 (gene 2152)
- PROTOCOL_DESCRIPTION: BSK_LPS_TissueFactor: BioMAP Diversity Plus: LPS Assay for Tissue Factor Biomarker Activity (AID 2283084)
- CONDITION_NOTES: primary human HUVEC with PBMC; actives raise or lower the signal
Activity calls are given as the source filed them. Rule for the calls: active = hit-call score of the fitted dose curve at least 0.9, where 1 is the maximum; inactive = score below 0.9.
Classes used: active, inactive

| SMILES_CODE | CLASS_NAME |
| --- | --- |
| CC[C@@H]1C[C@H](N(Cc2cc(C(F)(F)F)cc(C(F)(F)F)c2)C(C)=O)c2cc(C(F)(F)F)ccc2N1C(=O)OC(C)C | inactive |
| CC(C)(C)c1csc(-c2cc3cc(OCc4ccccc4CC(=O)O)ccc3o2)n1 | inactive |
| CCCCCCCC[Si](OCC)(OCC)OCC | inactive |
| O=C=NCCCCCCN=C=O | inactive |
| CCO[Si](CCCNC(N)=O)(OCC)OCC | inactive |
| CO[C@H]1/C=C/O[C@@]2(C)Oc3c(C)c(O)c4c(O)c(c(/C=N/N5CCN(C)CC5)c(O)c4c3C2=O)NC(=O)/C(C)=C\C=C\[C@H](C)[C@H](O)[C@@H](C)[C@@H](O)[C@@H](C)[C@H](OC(C)=O)[C@@H]1C | inactive |
| Clc1cc(Cl)c2c(c1)N=C1CCCCCN1C2 | inactive |
| CCCCCCCCN(C)CCCCCCCC | inactive |
| CC(C)(c1cc(Br)c(O)c(Br)c1)c1cc(Br)c(O)c(Br)c1 | active |
| CCCCCCCCCC(=O)O | inactive |

###

- PROTOCOL_DESCRIPTION: ATG_PPRE_CIS: Attagene CIS-FACTORIAL HepG2 Assay for human Peroxisome Proliferator-activated Response Element (PPRE) (AID 2282958)
- CONDITION_NOTES: HepG2 PPRE cis-element reporter, Attagene transcription factor profiling; actives raise or lower the signal
The source made the active and inactive calls. How the source made its calls: active means hit-call score of the fitted dose curve at least 0.9, where 1 is the maximum; inactive means score below 0.9.

| SMILES_CODE | outcome |
| --- | --- |
| COc1ccc2cc(S(=O)(=O)N[C@H](CC(=O)N[C@H](Cc3ccc(CN4[C@H](C)CCC[C@@H]4C)cc3)C(=O)N(C)C(C)C)c3ccc4c(c3)OCO4)ccc2c1 | inactive |
| CO[C@H]1/C=C/O[C@@]2(C)Oc3c(C)c(O)c4c(O)c(c(/C=N/N5CCN(C)CC5)c(O)c4c3C2=O)NC(=O)/C(C)=C\C=C\[C@H](C)[C@H](O)[C@@H](C)[C@@H](O)[C@@H](C)[C@H](OC(C)=O)[C@@H]1C | inactive |
| CCO[Si](CCCNC(N)=O)(OCC)OCC | inactive |

###

- Read-out: matrix metalloproteinase-10 (MMP10), MMP10 (gene 4319)
- PROTOCOL_DESCRIPTION: LTEA_HepaRG_MMP10: Life Technologies and Expression Analysis (LTEA) Assay for matrix metalloproteinase-10 (MMP10) using HepaRG (AID 2283517)
- CONDITION_NOTES: mRNA level, 48 h; actives raise or lower the signal
Activity calls are given as the source filed them. How the source made its calls: active means hit-call score of the fitted dose curve at least 0.9, where 1 is the maximum; inactive means score below 0.9.
Outcome codes: 1 = active, 0 = inactive

| COMPOUND | CLASS_NAME |
| --- | --- |
| CC[C@@H]1C[C@H](N(Cc2cc(C(F)(F)F)cc(C(F)(F)F)c2)C(C)=O)c2cc(C(F)(F)F)ccc2N1C(=O)OC(C)C | 0 |
| CC/C(=C(/CC)c1ccc(O)cc1)c1ccc(O)cc1 | 1 |
| COCC(C)OCC(C)OCC(C)O (stereo not given) | 0 |
| c1ccc2n[nH]nc2c1 | 0 |
| CCOC(=O)O[C@H](C)OC(=O)c1ccc2c(c1)cc(C(=O)NC1CCN(C(C)C)CC1)n2Cc1cc(-c2ccc(Cl)s2)on1 | 0 |

###

- PROTOCOL_DESCRIPTION: ATG_GRE_CIS: Attagene CIS-FACTORIAL HepG2 Assay for human Glucocorticoid Response Elements (GRE) (AID 2282947)
- CONDITION_NOTES: HepG2 GRE cis-reporter, Attagene multiplex mRNA; actives raise or lower the signal
Activity calls are given as the source filed them. Rule for the calls: active = hit-call score of the fitted dose curve at least 0.9, where 1 is the maximum; inactive = score below 0.9.
Classes used: active, inactive

| MOLECULE | CLASS_NAME |
| --- | --- |
| CC(C)(O)c1ccc(CNC(=O)c2cccnc2Oc2ccc3nonc3c2)cc1 | inactive |
| CC(C)(C)c1csc(-c2cc3cc(OCc4ccccc4CC(=O)O)ccc3o2)n1 | inactive |
| Cc1cc(F)ccc1-c1cc(N2CC[C@@H](O)[C@H]2CO)ncc1N(C)C(=O)C(C)(C)c1cc(C(F)(F)F)cc(C(F)(F)F)c1 | inactive |
| O=C(OCCCCCCOC(=O)c1ccccc1)c1ccccc1 | inactive |
| Cc1occc1C(=O)Nc1ccc(C(=O)N2CCC(F)(F)/C(=C\C(=O)N3CCC(N4CCCCC4)CC3)c3ccccc32)cc1 | active |
| Cc1ccc(C(C)C)cc1 | inactive |
| O=C(Nc1ccc(Cl)cc1)Nc1ccc(Cl)c(Cl)c1 | inactive |
| OC12N=C(c3ccccc3)SC1Cc1cc(Cl)ccc12 (centres undefined) | inactive |
| CC(=O)N1CCN(c2ccc(OC[C@H]3CO[C@](Cn4ccnc4)(c4ccc(Cl)cc4Cl)O3)cc2)CC1 | inactive |
| CC/C(=C(/CC)c1ccc(O)cc1)c1ccc(O)cc1 | inactive |
| CCO[Si](CCCNC(N)=O)(OCC)OCC | inactive |
| COCC(C)OCC(C)OCC(C)O (centres undefined) | inactive |
| COc1cc(C(=O)NC2CCN(C)CC2)ccc1Nc1ncc2c(n1)N(C1CCCC1)CC(F)(F)C(=O)N2C | active |
| C[C@]12CC[C@@H]3c4ccc(O)cc4CC[C@H]3[C@@H]1CC[C@H]2O | inactive |
| Oc1ccc2ccccc2c1 | inactive |
| O=C(O)Cc1cc(I)c(Oc2ccc(O)c(I)c2)c(I)c1 | inactive |
| CC[C@@H]1C[C@H](N(Cc2cc(C(F)(F)F)cc(C(F)(F)F)c2)C(C)=O)c2cc(C(F)(F)F)ccc2N1C(=O)OC(C)C | inactive |
| CCCCCCCCCC(=O)O | inactive |
| O=C(O)Cn1c(=O)n(Cc2ccc(Br)cc2F)c(=O)c2ccc(Cl)cc21 | inactive |

###

- Read-out: 3-Hydroxy-3-Methylglutaryl-CoA Synthase 2 (HMGCS2), HMGCS2 (gene 3158)
- PROTOCOL_DESCRIPTION: LTEA_HepaRG_HMGCS2: Life Technologies and Expression Analysis (LTEA) Assay for 3-Hydroxy-3-Methylglutaryl-CoA Synthase 2 (HMGCS2) using HepaRG (AID 2283504)
- CONDITION_NOTES: mRNA level, 48 h; actives raise or lower the signal
Active and inactive are the calls of the source. How the source made its calls: active means hit-call score of the fitted dose curve at least 0.9, where 1 is the maximum; inactive means score below 0.9.
Classes used: active, inactive

| COMPOUND | CLASS_NAME |
| --- | --- |
| NCc1cccc(C2CCN(C(=O)c3ccc(C#Cc4ccccc4F)o3)CC2)c1 | active |
| CN1C(=O)N(c2ccccc2Br)Cc2cnc(Nc3ccc4c(c3)OCC(CO)O4)nc21 (configuration not stated) | active |
| C[C@]12CC[C@@H]3c4ccc(O)cc4CC[C@H]3[C@@H]1CCC2=O | active |
| O=CCCCC=O | inactive |
| CCCCCCCCCCCO | inactive |
| CCCCOC(=O)c1ccc(O)cc1 | inactive |
| Clc1ccccc1C(c1ccccc1)(c1ccccc1)n1ccnc1 | active |
